- assay target: Tyrosine-protein phosphatase non-receptor type 2 (Homo sapiens)
- Sequence (whole entry): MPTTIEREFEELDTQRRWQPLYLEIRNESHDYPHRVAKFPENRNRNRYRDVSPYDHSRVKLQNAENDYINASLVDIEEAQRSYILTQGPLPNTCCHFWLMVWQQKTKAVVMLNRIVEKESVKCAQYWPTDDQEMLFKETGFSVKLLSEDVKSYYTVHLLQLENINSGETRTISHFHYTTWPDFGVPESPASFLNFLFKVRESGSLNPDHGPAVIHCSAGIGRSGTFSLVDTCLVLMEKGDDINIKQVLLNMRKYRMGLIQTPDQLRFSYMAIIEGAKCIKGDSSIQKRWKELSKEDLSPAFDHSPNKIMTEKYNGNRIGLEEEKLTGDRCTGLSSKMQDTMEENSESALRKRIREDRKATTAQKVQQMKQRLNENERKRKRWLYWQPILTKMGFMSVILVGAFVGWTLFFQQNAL
- method: Inhibition of recombinant human TCPTP expressed in Escherichia coli […] preincubated for 15 mins followed by substrate addition and measured after 60 mins
Active and inactive are the calls of the source. The calls are words filed in the database; no cut-off is given here.
readout label: inhibition

structure as smiles: CO[C@]1(Cc2ccccc2)NC(=O)[C@@H](C)n2c1nc1c(c2=O)C=CC=CO1
inhibition: inactive
//
structure as smiles: C[C@@H]1C(=O)N[C@](O)(Cc2ccccc2)c2nc3c(O)cccc3c(=O)n21
inhibition: inactive
//
structure as smiles: C[C@@H]1C(=O)N[C@@](O)(Cc2ccccc2)c2nc3c(O)cccc3c(=O)n21
inhibition: inactive
//
structure as smiles: CO[C@]1(Cc2ccccc2)NC(=O)[C@@H](C)n2c1nc1c(O)cccc1c2=O
inhibition: inactive
//
structure as smiles: CO[C@@]1(Cc2ccccc2)NC(=O)[C@@H](C)n2c1nc1c(c2=O)C=CC=CO1
inhibition: inactive

Go through the items and report each one's inhibition.
1. C[C@@H]1C(=O)N[C@@](O)(Cc2ccccc2)c2nc3c(c(=O)n21)C=CC=CO3
2. C[C@@H]1C(=O)N/C(=C\c2ccccc2)c2nc3c(c(=O)n21)C=CC=CO3

1. inactive
2. inactive

----------
- assay target: UniProtKB P17706
- method: Inhibition of recombinant human TCPTP expressed in Escherichia coli […] preincubated for 15 mins followed by substrate addition and measured after 60 mins
Task for the reader: assign each of the following compounds its reported IC50.

structure as smiles: CC[C@@H](C)C1=C2N=C3OC=CC=C[C@]3(OC)C(=O)N2[C@@H](Cc2ccccc2)C(=O)N1
assay target: UniProtKB P17706
IC50: 14 to 87 µM
//
structure as smiles: C[C@@H]1C(=O)N/C(=C\c2ccccc2)c2nc3c(O)cccc3c(=O)n21
assay target: UniProtKB P17706
IC50: 14 to 87 µM

So what does the record say about IC50 for C[C@@H]1C(=O)N[C@](O)(Cc2ccccc2)c2nc3c(c(=O)n21)C=CC=CO3 ?
14 to 87 µM

----------
- assay target: Tyrosine-protein phosphatase non-receptor type 9 (Homo sapiens) (UniProt P43378)
- Sequence (P43378 whole entry): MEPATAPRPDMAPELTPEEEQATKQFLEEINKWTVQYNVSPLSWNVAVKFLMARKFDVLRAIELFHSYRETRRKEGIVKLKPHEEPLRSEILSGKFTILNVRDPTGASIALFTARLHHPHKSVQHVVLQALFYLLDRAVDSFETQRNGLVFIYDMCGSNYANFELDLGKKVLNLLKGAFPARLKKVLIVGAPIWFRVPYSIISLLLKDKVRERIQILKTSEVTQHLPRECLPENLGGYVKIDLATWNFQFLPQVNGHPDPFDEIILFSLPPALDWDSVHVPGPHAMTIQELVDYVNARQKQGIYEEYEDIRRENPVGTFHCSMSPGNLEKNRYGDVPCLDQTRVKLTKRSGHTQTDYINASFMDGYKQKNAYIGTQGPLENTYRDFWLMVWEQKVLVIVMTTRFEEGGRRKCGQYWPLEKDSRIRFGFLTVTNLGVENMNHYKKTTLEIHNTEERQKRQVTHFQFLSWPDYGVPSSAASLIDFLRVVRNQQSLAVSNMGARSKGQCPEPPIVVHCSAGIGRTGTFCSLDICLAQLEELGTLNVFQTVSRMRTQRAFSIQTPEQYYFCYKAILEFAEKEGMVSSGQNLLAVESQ
- method: Inhibition of recombinant human MEG2 expressed in Escherichia coli […] preincubated for 15 mins followed by substrate addition and measured after 60 mins
Active and inactive are the calls of the source. The rule behind the calls is not given here.
readout label: inhibition

structure as smiles: C[C@@H]1C(=O)N[C@](O)(Cc2ccccc2)c2nc3c(O)cccc3c(=O)n21
assay target: Tyrosine-protein phosphatase non-receptor type 9 (Homo sapiens) (UniProt P43378)
readout label: inhibition
assay value: inactive
--
structure as smiles: C[C@@H]1C(=O)N[C@@](O)(Cc2ccccc2)c2nc3c(c(=O)n21)C=CC=CO3
assay target: Tyrosine-protein phosphatase non-receptor type 9 (Homo sapiens) (UniProt P43378)
readout label: inhibition
assay value: inactive
--
structure as smiles: CO[C@]1(Cc2ccccc2)NC(=O)[C@@H](C)n2c1nc1c(c2=O)C=CC=CO1
assay target: Tyrosine-protein phosphatase non-receptor type 9 (Homo sapiens) (UniProt P43378)
readout label: inhibition
assay value: inactive
--
structure as smiles: C[C@@H]1C(=O)N[C@@](O)(Cc2ccccc2)c2nc3c(O)cccc3c(=O)n21
assay target: Tyrosine-protein phosphatase non-receptor type 9 (Homo sapiens) (UniProt P43378)
readout label: inhibition
assay value: inactive
--
structure as smiles: CO[C@]1(Cc2ccccc2)NC(=O)[C@@H](C)n2c1nc1c(O)cccc1c2=O
assay target: Tyrosine-protein phosphatase non-receptor type 9 (Homo sapiens) (UniProt P43378)
readout label: inhibition
assay value: inactive

Go through the items and report each one's inhibition.
1. CO[C@@]1(Cc2ccccc2)NC(=O)[C@@H](C)n2c1nc1c(c2=O)C=CC=CO1
2. C[C@@H]1C(=O)N/C(=C\c2ccccc2)c2nc3c(c(=O)n21)C=CC=CO3

["inactive", "inactive"]
